Biological target: TRPM5 (Homo sapiens)
Sequence (Q9NZQ8 1-1165): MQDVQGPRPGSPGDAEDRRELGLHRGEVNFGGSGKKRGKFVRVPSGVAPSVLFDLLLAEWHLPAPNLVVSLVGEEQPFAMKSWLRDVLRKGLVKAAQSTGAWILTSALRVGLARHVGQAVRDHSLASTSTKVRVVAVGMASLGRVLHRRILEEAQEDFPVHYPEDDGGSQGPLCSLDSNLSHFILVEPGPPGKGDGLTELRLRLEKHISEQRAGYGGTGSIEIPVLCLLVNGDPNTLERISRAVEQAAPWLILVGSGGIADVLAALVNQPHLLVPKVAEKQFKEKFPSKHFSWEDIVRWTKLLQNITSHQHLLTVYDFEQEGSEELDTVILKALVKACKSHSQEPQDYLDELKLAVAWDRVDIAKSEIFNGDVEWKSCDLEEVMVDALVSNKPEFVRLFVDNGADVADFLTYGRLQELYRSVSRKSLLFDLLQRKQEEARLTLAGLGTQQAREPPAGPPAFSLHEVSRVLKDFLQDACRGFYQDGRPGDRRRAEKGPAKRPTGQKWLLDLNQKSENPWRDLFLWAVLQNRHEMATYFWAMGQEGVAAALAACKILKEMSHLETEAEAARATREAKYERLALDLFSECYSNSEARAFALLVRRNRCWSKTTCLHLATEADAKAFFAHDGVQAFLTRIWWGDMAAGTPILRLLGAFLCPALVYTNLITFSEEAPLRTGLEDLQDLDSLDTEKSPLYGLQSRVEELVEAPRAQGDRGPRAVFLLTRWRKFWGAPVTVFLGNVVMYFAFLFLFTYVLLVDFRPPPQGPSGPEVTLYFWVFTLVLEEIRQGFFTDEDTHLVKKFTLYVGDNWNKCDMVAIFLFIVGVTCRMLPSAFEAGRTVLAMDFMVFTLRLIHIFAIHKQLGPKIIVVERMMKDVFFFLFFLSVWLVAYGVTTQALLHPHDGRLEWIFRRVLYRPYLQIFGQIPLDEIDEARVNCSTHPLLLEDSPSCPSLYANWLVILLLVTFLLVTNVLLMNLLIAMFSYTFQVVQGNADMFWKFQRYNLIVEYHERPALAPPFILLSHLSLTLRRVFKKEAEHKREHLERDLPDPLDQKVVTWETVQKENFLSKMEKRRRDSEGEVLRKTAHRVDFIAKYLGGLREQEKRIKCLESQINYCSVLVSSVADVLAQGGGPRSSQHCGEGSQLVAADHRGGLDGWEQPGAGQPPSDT
Experiment: Fluorescence cell-based assay, TRPM5
Conditions: membrane potential dye, duplicate
assay readout: IC50

IN: Recall the reported IC50 of `COc1cc(/C=C/C(=O)N2CCC=CC2=O)cc(OC)c1OC` when tested on TRPM5 (Homo sapiens).
OUT: > 100 µM
